Recorded values, source paper PMC6066535.

- system tested: BACE1 (beta-secretase 1) (Homo sapiens)
- Sequence (P56817 46-501): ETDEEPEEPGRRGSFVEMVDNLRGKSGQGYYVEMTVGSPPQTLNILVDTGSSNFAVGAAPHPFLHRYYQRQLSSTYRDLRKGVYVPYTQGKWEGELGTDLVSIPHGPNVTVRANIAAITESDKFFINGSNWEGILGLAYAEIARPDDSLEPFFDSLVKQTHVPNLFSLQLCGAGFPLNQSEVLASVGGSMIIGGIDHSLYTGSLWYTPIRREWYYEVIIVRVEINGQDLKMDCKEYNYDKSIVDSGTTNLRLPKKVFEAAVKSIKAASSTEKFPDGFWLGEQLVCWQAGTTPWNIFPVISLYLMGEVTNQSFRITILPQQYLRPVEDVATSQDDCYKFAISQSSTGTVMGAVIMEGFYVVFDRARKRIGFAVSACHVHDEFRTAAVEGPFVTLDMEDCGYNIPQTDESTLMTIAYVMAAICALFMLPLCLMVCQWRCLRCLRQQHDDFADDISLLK
measured parameter: IC50 (µM)
One number for each entry, in µM.

Quick check: IC50 of COc1ccc2cc3[n+](cc2c1OC)CCc1cc2c(cc1-3)OCO2 [berberine] ?
63

* * *

- system tested: BACE1 (beta-secretase 1) (Homo sapiens)
measured parameter: Kd
Answer format: number, then unit.

Notebook entry, BACE1 (beta-secretase 1) (Homo sapiens) assay: Kd of `COc1ccc2cc3[n+](cc2c1OC)CCc1cc2c(cc1-3)OCO2` = ?
1260 nM

* * *

- system tested: Aβ1-42 (amyloid-β1-42) oligomer (Homo sapiens, UniProt P05067)
- Sequence (P05067 672-713): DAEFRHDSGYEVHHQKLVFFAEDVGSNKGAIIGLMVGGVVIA
measured parameter: pKd
Numbers only, as −log10 of the molar value.

Form field - read-out: pKd; system: Aβ1-42 (amyloid-β1-42) oligomer (Homo sapiens, UniProt P05067); submitted item: `COc1ccc2cc3[n+](cc2c1OC)CCc1cc2c(cc1-3)OCO2`
5.83
